TARGET OF ASSAY: T1, AAV8 (adeno-associated virus serotype 8)
T1 construct: also called adeno-associated virus serotype 8
EXPERIMENT: SPR, AAV on CM5 chip;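 also: surface plasmon resonance with AAV amine-coupled to the chip as ligand, nanobodies injected as analyte over a concentration series, rate constants and affinity fitted from binding curves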
MEASURED ATTRIBUTE: kon (M⁻¹ s⁻¹)
Value expressed in M⁻¹ s⁻¹; do not type the unit.

Worked set:
BINDER	ENDPOINT VALUE
A4-105 (VHH) VHH: VQLQESGGGLVQPGGSLRLSCAASGSIFSLNAMGWYRQAPGKQRELVATITSGGSTNYADSVKGRFTISRDNAKNTAYLQMNNLQPEDTAVYYCHVDEVRESIWTTSNLWGQGTQVTVSS	180000
A4-101 (VHH) VHH: VQLQESGGGLVQPGGSLRLSCAASGSRFSINIMGWYRQAPGKQRELVASVTRGGTTNYADSVKGRFTISRDNPKNTIYLQMNSLRPEDTAVYYCHVDEIRESTWTTSNLWGQGTQVTVSS	7970
A4-110 (VHH) VHH: VQLQESGGGLVQPGGSLRLSCFASGTNFSINVVGWYRQAPGKQRELVATITRGGSTNYAESVKGRFTISRDNAKNTVYLQMNNLRPEDTAVYYCHLDEVRDSSWTTSNLWGQGTQVTVSS	6930

Turning to the following binder.
// query Report kon for A4-103 (VHH) VHH: VQLQESGGGLVQPGGSLRLSCAASGSIFSLNAMGWYRQAPGKQRELVATITRGGSTNYADSVKGRFTISRDNAKNTVYLQMNSLRPEDTAVYYCHVDEVRESIWTTSNLWGQGTQVTVSS please.
// result 51900
